Tested on: MCF7 breast
Test: NCI-60 one-dose screen, 48 h
Settings: 10 µM unless noted
The panel holds about 83,000 compounds, 20% with a hit somewhere; the sample as a whole holds those more often. The source made the active and inactive calls. The calls were made as follows: active = growth percent below 10; inactive = the rest.
Assign a class; possible classes are TRUE = active, FALSE = inactive

See these solved cases before continuing.
mol | classAssignment
COc1ccc(OC)c(Nc2nnc(-c3ccc(Cl)cc3)o2)c1 | FALSE
N=C(N)c1ccc(-c2ccc(-c3ccc(F)cc3)s2)s1 | TRUE
O=C1/C(=C/c2cccc([N+](=O)[O-])c2)COc2ccc(O)cc21 | TRUE
O=c1oc2c(cnc3ccccc32)cc1-c1cccs1 | FALSE
O=C1NC(=Nc2ccc(O)cc2)S/C1=C\c1cccs1 | FALSE

# ---- query molecule ----
Could you kindly confirm the outcome this assay logged for `C=C1C(=O)O[C@H]2[C@H]1CC/C(COC(=O)NCc1ccc(Cn3c(=O)sn(-c4ccc(OC)cc4)c3=O)cc1)=C\CC[C@@]1(C)O[C@@H]21` ? FALSE

====

System: NCI-H522 lung
Experiment: NCI-60 one-dose screen, 48 h (100 = growth as untreated, 0 = no growth, -100 = all killed)
Conditions: 10 µM unless noted
Description: Growth inhibition of the NCI-H522 human Non-Small Cell Lung tumor cell line is measured as a screen for anti-cancer activity. Cells are grown in 96 well plates and exposed to the test compound for 48 hours. Compounds are tested at a single concentration, which is 10^-5 M for most compounds. The reported endpoint is percent growth (GI% or GIPRCNT), where numbers from 0 - 100% represent growth inhibition, and numbers from -100% - 0 represent cell death. […]
Compounds without any hit were thinned out: in the full panel of roughly 83,000, 20% have a hit.
Label rule, in plain words: growth of 70% and up is y, under 70% is n.

See these solved cases before continuing.
compound | experimentalTarget | classAssignment
NC(=O)OCCn1cc(-c2nc(-c3c[nH]c4ncccc34)cs2)c2ccccc21 | NCI-H522 lung | n
COc1cc(C(=O)/C=C/c2ccc(N3CCN(C)CC3)cc2)cc(OC)c1OC | NCI-H522 lung | y
Cc1ccc(O)c(NC(=O)c2ccc(CNc3ccnc(C(F)(F)F)c3)cc2)c1 | NCI-H522 lung | n

# ---- query compound ----
State whether the measured growth reaches 70%, counting equality as reaching it, for CCN(CC)CCCC(C)Nc1ccc2cc(OC)ccc2n1 (stereo not given) y

====

System: HCT-116 colon
Experiment: NCI-60 one-dose screen, 48 h (100 = growth as untreated, 0 = no growth, -100 = all killed)
Conditions: 10 µM unless noted
Compounds without any hit were thinned out: in the full panel of roughly 83,000, 20% have a hit. Active and inactive are the calls of the source. Rule for the calls: active = growth percent below 10; inactive = the rest.
experimentalEndpoint: growth

Solved cases below.
molecule | growth
CN(C)c1ccc(/C=C2/C=C(c3ccccc3)OC2=O)cc1 | 100% (inactive)
CN(Cc1cnc2nc(N)nc(N)c2n1)c1c(Cl)cc(C(=O)NC(CCC(=O)O)C(=O)O)cc1Cl (stereo unspecified) | 18.9% (inactive)
CCCCCCCCCCCCCCCCOC(=O)c1c(C)[nH]c(/C=C2\N=C(c3ccc[nH]3)C=C2OC)c1C | -0.291% (active)
CC1=C(C(=O)n2c3ccccc3c3ccccc32)C(c2cccc([N+](=O)[O-])c2)C(C(=O)n2c3ccccc3c3ccccc32)=C(C)N1 | 91.8% (inactive)
CCN=C1C=CC(=C(c2ccc(N(C)C)cc2)c2ccc(N(C)C)cc2)c2ccccc21 | -51.6% (active)
O=C(CCCCl)NNc1nccc(Nc2ccc(S(=O)(=O)Nc3ccncc3)cc2)n1 | 97.1% (inactive)

Name the recorded growth for `C[C@H]1[C@H](C)CC[C@]2(C(=O)O)CC[C@]3(C)C(=CC[C@@H]4[C@@]5(C)C[C@@H](Cc6cn([C@@H]7O[C@H](CO)[C@@H](O)[C@H](O)[C@H]7O)nn6)[C@H](O)C(C)(C)[C@@H]5CC[C@]43C)[C@H]12` . 92% (inactive)

Queued: `CCOC(=O)n1cc(-c2nonc2-c2cn(C)c3ccccc23)c2ccccc21` 22.3% (inactive)

Queued: `CCNC(=O)Oc1ccc(/C(=C(/C)Cc2ccc(OC)cc2)c2ccc(OCCN3CCCC3)cc2)cc1` 44% (inactive)

Queued: `Cc1nc2sc(C(=O)Nc3ccccc3)c(N)c2cc1C(=O)/C=C/c1ccccc1` -66.9% (active)

Queued: `C=CC(=O)N1CCN(c2ccc3cccc(NC(=O)c4cnc(C)cn4)c3n2)CC1` 27.4% (inactive)

Queued: `C#Cc1cccc(Nc2nc3ccc([N+](=O)[O-])cc3nc2Nc2cccc(C#C)c2)c1` -94.7% (active)

====

System: PC-3 prostate
Experiment: NCI-60 one-dose screen, 48 h (100 = growth as untreated, 0 = no growth, -100 = all killed)
Settings: 10 µM unless noted
About 83,000 compounds went through this panel and 20% of them were active in at least one assay; those are over-represented in the sample as a whole.
Here, each record is paired with measured growth data.
Report the value in % with no unit label.

Solved cases below.
compound | growth [%]
Cn1cc(-c2nonc2-c2c[nH]c3ccccc23)c2ccccc21 | 20.7
CCSC1=CC(=O)c2ccccc2C1=O | 73
CCCNc1nc2ccccc2c2c(=O)c3cccc(Cl)c3sc12 | 88.5
Cn1c(/C=C/[N+](=O)[O-])cc2ccccc21 | 7.59
O=C(/C=C/C12c3ccccc3C(c3ccccc31)C1C(=O)NC(=O)C12)c1ccc(F)cc1 (stereo not drawn) | 8.91
CCn1cc(C(=O)NN=C2CCCCCC2)c(=O)c2ccc(C)nc21 | 82.7
CCCCSCC(=O)c1ccccc1 | 81.5
O=C1CCCc2nc3sc4c(=O)n(-c5ccccc5Cl)nnc4c3cc21 | 83.6
COc1ccc(-c2cc(-c3ccc(OC)cc3)nc(NCCCNc3ccnc4cc(Cl)ccc34)n2)cc1 | 61.5
Oc1c(I)cc(-c2nc3ccccc3s2)cc1CN(Cc1ccccn1)Cc1ccccn1 | 28.3

Name the recorded growth for `C#CCn1cnc2c(Nc3cccc(NC(=O)CCl)c3)ncnc21` . 28.6

Queued: C#CC#CC#CC#CC#CC#CC#CC#CCC1OCC(COC(=O)O[C@@H](C(=O)O[C@H]2C[C@@]3(O)[C@@H](OC(=O)c4ccccc4)[C@@H]4[C@]5(OC(C)=O)CO[C@@H]5C[C@H](O)[C@@]4(C)C(=O)[C@H](OC(C)=O)C(=C2C)C3(C)C)[C@@H](NC(=O)c2ccccc2)c2ccccc2)O1 (stereo partly drawn) 19.4

====

System: RXF 393 renal
Assay: NCI-60 one-dose screen, 48 h
Settings: 10 µM unless noted
Method: Cells are grown in 96 well plates and exposed to the test compound for 48 hours. Compounds are tested at a single concentration, which is 10^-5 M for most compounds. The reported endpoint is percent growth (GI% or GIPRCNT), where numbers from 0 - 100% represent growth inhibition, and numbers from -100% - 0 represent cell death. For example, a value of 40 represents 60% growth inhibition. A value of 0 means no net growth occurred over the course of the experiment. […]
About 83,000 compounds went through this panel and 20% of them were active in at least one assay; those are over-represented in the sample as a whole. Activity calls are given as the source filed them. Rule for the calls: active = growth percent below 10; inactive = the rest.
Assign a class; possible classes are active, inactive

See these solved cases before continuing.
mol | classAssignment
C=CCCC(=O)N1C=CC(=O)[C@H](O)[C@@H]1/C=C/c1ccccc1 | inactive
COc1cc2oc(-c3cccc(NC(=O)c4ccc5c(c4)OCO5)c3)cc(=O)c2c(OC)c1OC | inactive

# ---- query compound ----
Could you kindly confirm the outcome this assay logged for `CN(C)Cc1ccc(C(=O)Nc2ccc3ncnc(Nc4ccc(Oc5cccc(F)c5)c(Cl)c4)c3c2)cc1` ? active

====

Tested on: NCI-H322M lung
Assay: NCI-60 one-dose screen, 48 h (100 = growth as untreated, 0 = no growth, -100 = all killed)
Conditions: 10 µM unless noted
Protocol: Growth inhibition of the NCI-H322M human Non-Small Cell Lung tumor cell line is measured as a screen for anti-cancer activity. Cells are grown in 96 well plates and exposed to the test compound for 48 hours. Compounds are tested at a single concentration, which is 10^-5 M for most compounds. The reported endpoint is percent growth (GI% or GIPRCNT), where numbers from 0 - 100% represent growth inhibition, and numbers from -100% - 0 represent cell death. […]
Compounds without any hit were thinned out: in the full panel of roughly 83,000, 20% have a hit.
Binary call on growth with cut-off 80%: strictly below means TRUE, and equality or higher means FALSE.

See these solved cases before continuing.
mol | classAssignment
C=C1C(=O)O[C@H]2[C@H]1CC/C(Cn1cc(-c3cc(C(F)(F)F)cc(C(F)(F)F)c3)nn1)=C\CC[C@@]1(C)O[C@@H]21 | TRUE
C/C(=N\Nc1nc(C)cs1)c1cc2ccccc2o1 | FALSE
Cc1[nH]c(C(=O)Nc2cccc(OC3CCNCC3)c2)c(Cl)c1Cl | FALSE

# ---- query compound ----
hey, is growth for `CCCCn1sc(=O)n(Cc2ccc(CNC(=O)OCc3ccc4c(Br)cc(Br)c(O)c4n3)cc2)c1=O` lower than 80% or not? TRUE
